- Test system: Shewanella sp. (TC11)
- experimental_details: Anti-adhesion test, strain TC11
- Type: cell-based
- condition_parameters: read-out: EC50 (effective concentration to inhibit 50% of the adhesion), strain TC11
measurement_name: EC50 (µM)
Record the value in µM, omitting the unit from your answer.

{"columns": ["compound_structure_string", "measurement_name", "unit_spec", "endpoint_result"],
 "data": [
  ["CN(C)CCCOc1ccc(-n2cc(-c3ccc(-c4cn(-c5ccc(OCCCN(C)C)c(Br)c5)nn4)cc3)nn2)cc1Br", "EC50", "µM", 165]
]}

*Q* Look at this molecule and give its reported EC50. CN(C)CCOc1ccc(CCn2cc(-c3ccc(-c4cn(CCc5ccc(OCCN(C)C)c(Cl)c5)nn4)cc3)nn2)cc1Cl
*A* 136

*Q* Look at this molecule and give its reported EC50. CN(C)CCOc1ccc(CCn2cc(-c3ccc(-c4cn(CCc5ccc(OCCN(C)C)c(I)c5)nn4)cc3)nn2)cc1I
*A* 129

* * *

pEC50 values, listed per item
- System: Paracoccus sp. (4M6)
- experimental_details: Anti-adhesion test, strain 4M6
- Type: cell-based
- condition_parameters: Paracoccus, read-out: EC50 (effective concentration to inhibit 50% of the adhesion), 4M6
// pEC50: -log10(molar conc.)

{"columns": ["compound", "measurement_name", "endpoint_result"],
 "data": [
  ["CN(C)CCOc1ccc(CCn2cc(-c3ccc(-c4cn(CCc5ccc(OCCN(C)C)c(Cl)c5)nn4)cc3)nn2)cc1Cl [SA63]", "pEC50", 4.02],
  ["COc1ccc(CCn2cc(COCc3cn(CCc4ccc(OC)c(Br)c4)nn3)nn2)cc1Br [NT6]", "pEC50", 3.78]
]}

*Q* Name the recorded pEC50 for COc1ccc(Cn2cc(-c3ccc(-c4cn(Cc5ccc(OC)c(Br)c5)nn4)cc3)nn2)cc1Br [SA8] .
*A* 3.79

* * *

Quick reference: activity at 200 µM of the listed items.
- System: Shewanella sp. (TC11)
- experimental_details: Anti-adhesion test, strain TC11
- Type: cell-based
- condition_parameters: 15 h, 200 μM, strain TC11, read-out: % of adhesion at 200 μM, TC11
Respond numerically; units are % and should not be typed.

{"columns": ["molecule", "target_or_test_system", "activity at 200 µM, %"],
 "data": [
  ["CN(C)CCOc1ccc(CCn2cc(-c3ccc(-c4cn(CCc5ccc(OCCN(C)C)c(I)c5)nn4)cc3)nn2)cc1I [SA45]", "Shewanella sp. (TC11)", 9.3],
  ["CN(C)CCCOc1ccc(CCn2cc(-c3ccc(-c4cn(CCc5ccc(OCCCN(C)C)c(I)c5)nn4)cc3)nn2)cc1I [SA46]", "Shewanella sp. (TC11)", 5.8]
]}

Please turn your attention to the following entry.
*Q* Which activity at 200 µM reading was recorded for the molecule CN(C)CCCOc1ccc(CCn2cc(-c3ccc(-c4cn(CCc5ccc(OCCCN(C)C)c(Br)c5)nn4)cc3)nn2)cc1Br [AS172] ?
*A* 4.6
